Where do the numbers come from? From ChEMBL document CHEMBL4020804.

Provide the recorded viability at 100 µM for the entries that follow.
tested on: NIH3T3; assay: Cytoprotective activity against GOX-induced oxidative stress in mouse NIH/3T3 cells assessed as cell survival at 100 uM treated for 5 hrs with 15 mU/ml GOX challenge by MTT assay (reference value: 42.71 +/- 2.10%); assay type: functional; conditions: NIH3T3, 5 h, read-out: Survival
Respond with the figure and its unit, in that order.

- compound: "CC(C)=CCCC(C)(O)C1Cc2c(O)ccc(C(=O)/C=C/c3ccc(O)cc3)c2O1 (stereo not given)"
  viability at 100 µM: "77.8%"
- compound: "O=C1CC(c2ccc(O)cc2)Oc2cc(O)ccc21 (racemic)"
  viability at 100 µM: "126%"
- compound: "C=C(C)[C@H]1CC[C@](C)([C@@H](O)Cc2c(O)ccc(C(=O)/C=C/c3ccc(O)cc3)c2O)O1 (racemic)"
  viability at 100 µM: "81.8%"
- compound: "CO[C@H]1c2c(ccc3ccc(=O)oc23)O[C@@H]1C(C)(C)O"
  viability at 100 µM: "129%"
- compound: "Cc1c(C)c2c(c(C)c1O)CC[C@@](C)(CCC[C@H](C)CCC[C@H](C)CCCC(C)C)O2"
  viability at 100 µM: "77.9%"

For each of the compounds below, state viability at 100 µM.
1. O=C(/C=C/c1ccc(O)cc1)c1ccc(O)cc1O
2. C/C(=C\Cc1c(O)ccc(C(=O)/C=C/c2ccc(O)cc2)c1O)CCC(=O)O
3. CC(C)C(=O)O[C@@H]1Cc2c(ccc3ccc(=O)oc23)OC1(C)C

Reply |
["82.9%", "74.5%", "83.1%"]

For each of the compounds below, state viability at 100 µM.
1. C/C=C(/C)C(=O)O[C@@H]1c2c(ccc3ccc(=O)oc23)OC(C)(C)[C@@H]1O[C@@H]1O[C@H](CO)[C@@H](O)[C@H](O)[C@H]1O
2. O=C(CCc1ccc(O)cc1)c1ccc(O)cc1O

Reply |
1: 93.8%; 2: 123%
